Origin of values: PubChem BioAssay (Tox21)

Biological target: D(2) dopamine receptor (Homo sapiens) (UniProt P14416)
Sequence (P14416 whole entry, looked up): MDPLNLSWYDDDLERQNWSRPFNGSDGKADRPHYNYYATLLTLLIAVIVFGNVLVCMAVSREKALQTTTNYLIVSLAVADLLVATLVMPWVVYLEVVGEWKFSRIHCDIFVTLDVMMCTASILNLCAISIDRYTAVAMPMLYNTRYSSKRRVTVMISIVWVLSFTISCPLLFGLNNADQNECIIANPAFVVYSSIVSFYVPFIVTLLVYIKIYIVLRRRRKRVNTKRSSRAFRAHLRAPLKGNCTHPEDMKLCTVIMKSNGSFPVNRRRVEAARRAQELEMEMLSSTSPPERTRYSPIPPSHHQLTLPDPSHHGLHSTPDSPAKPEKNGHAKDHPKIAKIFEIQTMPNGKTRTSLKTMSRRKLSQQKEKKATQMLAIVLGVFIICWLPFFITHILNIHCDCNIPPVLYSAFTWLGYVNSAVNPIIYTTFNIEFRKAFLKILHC
Experiment: Dopamine D2 receptor (DRD2) small molecule antagonists, cell-based qHTS assay (AID 1963595); also: % is scaled to controls: 0 for no effect and ±100 for the full control effect
Details: HEK293-DRD2 cAMP HTRF antagonist mode; series mostly up to 92.4 µM
Results filed as inconclusive are left out. Calls of active or inactive are those of the source. Calls follow the shape of the dose curve; as a rule, active = well fitted inhibition curve with a large enough effect in the signal ratio in the repeat runs, with a control signal flat; inconclusive = weak or mixed curves, or effect the other way; inactive = flat fitted curve, though single readings scatter; the % refers to the signal ratio.
Property: activity change, negative = inhibition

Examples with their reported activity change, negative = inhibition follow.
- Molecule: "CN1Cc2c(N)cccc2C(c2ccccc2)C1 (stereo unspecified)"
  activity change, negative = inhibition: "inactive"
- Molecule: "CCCCCCCCCCCCCCCCBr"
  activity change, negative = inhibition: "-0.776% [at 18.9 µM] (inactive)"
- Molecule: "OC[C@H]1O[C@@H](O[C@H]2[C@H](O)[C@@H](O)[C@H](O)O[C@@H]2CO)[C@H](O)[C@@H](O)[C@H]1O"
  activity change, negative = inhibition: "inactive"
- Molecule: "Oc1ccc(Sc2ccc(O)cc2)cc1"
  activity change, negative = inhibition: "inactive"
- Molecule: "COc1nc(C)nc(NC(=O)NS(=O)(=O)c2ccccc2OCCCl)n1"
  activity change, negative = inhibition: "inactive"

query: Consider the molecule CC(C)[C@@H]1CC[C@@H](C)CC1=O . State its measured activity change, negative = inhibition.
result: inactive
